Origin of measurements: ChEMBL document CHEMBL5725219

Molecular target: Prostaglandin E2 receptor EP4 subtype (Homo sapiens, UniProt P35408)
Sequence (P35408 whole entry): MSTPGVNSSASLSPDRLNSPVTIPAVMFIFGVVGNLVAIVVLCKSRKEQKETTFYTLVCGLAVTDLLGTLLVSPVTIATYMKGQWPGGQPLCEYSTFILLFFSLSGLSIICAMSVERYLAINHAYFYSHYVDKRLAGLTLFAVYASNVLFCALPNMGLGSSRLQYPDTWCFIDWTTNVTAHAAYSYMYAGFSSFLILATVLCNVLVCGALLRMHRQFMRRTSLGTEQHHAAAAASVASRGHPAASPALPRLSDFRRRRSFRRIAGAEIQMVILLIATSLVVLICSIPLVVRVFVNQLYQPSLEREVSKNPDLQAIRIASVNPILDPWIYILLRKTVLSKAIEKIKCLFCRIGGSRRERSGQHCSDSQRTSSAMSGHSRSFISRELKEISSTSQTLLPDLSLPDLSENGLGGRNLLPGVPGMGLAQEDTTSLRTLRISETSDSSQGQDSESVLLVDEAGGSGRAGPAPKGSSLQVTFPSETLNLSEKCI
Test: FLIPR Assay: Cells were seeded at a density of 5×10^4 cells per well in Biocoat® Poly-D-lysine-coated black-wall, clear-bottom 96-well plates (Becton-Dickinson) and allowed to attach overnight in an incubator at 37° C. Cells were then washed two times with HBSS-HEPES buffer (Hanks Balanced Salt Solution without bicarbonate and phenol red, 20 mM HEPES, pH 7.4) using a Denley Cellwash plate washer (Labsystems). After 45 minutes of dye-loading in the dark, using the calcium-sensitive dye Fluo-4 AM at a final concentration of […], plates were washed four times with HBSS-HEPES buffer to remove excess dye leaving […] in each well. Plates were re-equilibrated to 37° C. for a few minutes.Cells were excited with an Argon laser at 488 nm, and emission was measured through a 510-570 nm bandwidth emission filter (FLIPR™, Molecular Devices, Sunnyvale, Calif.). Drug solution was added in a 50 μl volume to each well to give the desired final concentration. The peak increase in fluorescence intensity was recorded for each well. On each plate, four wells each served as negative (HBSS-HEPES buffer) and positive controls (standard agonists: BW245C (hDP); PGE2 (hEP1; hEP2/Gqs5; hEP3A/Gqi5; hEP4/Gqs5); PGF2a (hFP); carbacyclin (hIP); U-46619 (hTP), depending on receptor). The peak fluorescence change in each drug-containing well was then expressed relative to the controls.
The following compounds are shown together with reported EC50 values.

| line_notation | EC50 |
| --- | --- |
| O=C(O)c1ccc(CCc2cccc3c2N(CCc2ccccc2)CC3)cc1 | 1580 nM |
| COc1cccc(CCN2CCc3cccc(CCc4ccc(C(=O)O)cc4)c32)c1 | 1260 nM |
| COc1cccc(Cn2ccc3cccc(CCc4ccc(C(=O)O)cc4)c32)c1 | 1620 nM |
| COc1cccc(CN2Cc3cccc(CCc4ccc(C(=O)O)cc4)c3C2)c1 | > 10000 nM |
| COc1cccc(S(=O)(=O)N2CCc3cccc(CCc4ccc(C(=O)O)cc4)c32)c1 | > 10000 nM |
| COc1cccc(CC(=O)N2CCc3cccc(CCc4ccc(C(=O)O)cc4)c32)c1 | > 10000 nM |
| O=C(O)c1ccc(CCc2cccc3c2N(Cc2cccc(C(F)(F)F)c2)CC3)cc1 | 187 nM |
| COc1cccc(CN2CCc3cccc(CCc4ccc(C(=O)O)cc4)c32)c1 | 178 nM |

Prompt line: Reported EC50 for `O=C(O)c1ccc(CCc2cccc3c2N(Cc2ccc(F)cc2)CC3)cc1` : what is it?
Response line: 450 nM

Prompt line: What do you get for `O=C(O)c1ccc(CCc2cccc3c2N(Cc2cccc(F)c2)CC3)cc1` ?
Response line: 123 nM
